tested on: Mycobacterium tuberculosis; experiment: Cornell M. t heat shock assay; format: functional, organism-based; parameters: dose or concentration left out as unconfirmed; further: in the data most compounds retested in dose-response had high values
The campaign covered roughly 69,000 compounds. About 950 (1.4%) showed an effect of 50% or more. The list comes from a sample in which strong results are over-represented; it also holds close analogues and randomly drawn compounds.
Exercise: for every item that follows, state its recorded Percent Effect.

For record O=C(O)C(F)(F)F.O=C([C@H]1C[C@H]2OCC[C@H]2N(C(=O)c2ccncc2)C1)N1CCCC1 the listed Percent Effect is -34.63%

For record CCCNC(=O)NC(=O)CNC(C)(C)c1ccc2c(c1)OCO2 the listed Percent Effect is -10.73%

For record O=C(O)C(F)(F)F.O=C(c1ccccc1)N1CCOC2(CCN(Cc3cccs3)CC2)C1 the listed Percent Effect is -35.41%

For record O=C(O)C(F)(F)F.O=C(c1ccc[nH]1)N1CCCn2c(CNC3CCC3)nnc2C1 the listed Percent Effect is 92.9%

For record O=C(O)C(F)(F)F.O=C(O)C(F)(F)F.O=C(O)C(F)(F)F.O=C1NC2(CCN(Cc3cccnc3)CC2)CC1c1cccnc1 (centres undefined) the listed Percent Effect is -25.56%

For record O=C1CCCN1Cc1nnc2n1CCCN(C(=O)c1ccc[nH]1)C2 the listed Percent Effect is 27.49%

For record CCNC(=O)NC(=O)CNC(C)(C)c1ccc2c(c1)OCCO2 the listed Percent Effect is 11.57%

For record Cn1cc(N2CCC3(CCN(Cc4nccs4)C3)C2=O)cn1.O=C(O)C(F)(F)F (centres undefined) the listed Percent Effect is -0.6336%

For record CCc1nnc(CN(C)c2nc(C(C)C)nc3c2cnn3C)o1 the listed Percent Effect is 106.1%
